Target: T1, Macaca fascicularis CD276 (Macaca fascicularis)
T1 construct: whole, on cells; also called cynomolgus monkey CD276; cynoCD276
Test: FACS on CHO-S-cynoCD276 cells

BINDER	FACS MFI
23-F10-G4-F11 (antibody, V domains shown, mouse monoclonal antibody (hybridoma)) VH: EVQLQESGPDLVRPGALVKLSCKSSGFNIKDYPIHWVRQRPEQGLEWIGWFDPDNGNVIYDPRFQGKASITADTSSNTAYLQLNSLTSEDTAVYYCSSPYGAMDYWGQGTSVTVSS VL: QIVLTQSPEIMSASPGEKVTMTCSASSSVSYIHWYQQKSGTSPKRWIYDTSKLASGVPARFSGSGSGTSYSLTIRSMEAEDAATYYCQQGSSNPRTFGGGTKLEIK	36700
18-F9-D8-G7 (antibody, V domains shown, mouse monoclonal antibody (hybridoma)) VH: EVQLQQSGPELVRPGVSVKISCKGSGYTFTDYAMHWVKQSHAQSLEWIGIINTYSGDTNYNQKFKGKATMTVDKSSSTAYMGLARLTSEDSAIFYCARGGGNYPYWYFDVWGAGTTVTVSS VL: ENVLTQSPAIMSASPGEKVTMTCRASSSVSSSYLHWYQQKSGDSPKLWIYSTSNLASGVPARFSGSGSGTSYSLTISSVEAEDAATYYCQQFSVYPLTFGAGTKLEIK	83500
27-E7-D8-C7 (antibody, V domains shown, mouse monoclonal antibody (hybridoma)) VH: EVQLQESGPELVRPGVSVKISCKGSGYTFTDYAMHWVKQSHAKSLEWIGVINTYSDNTNYNRKFKGKATMTVDKSSSTAYMELARLTSEDSAIYYCARGLLLRSQLGVYFDYWGQGTTLTVSS VL: QIVLSQSPAILSASPGEKVTMTCRASSSVSYMHWYQQKPGSSPKPWIYATSNLASGVPARFSGSGSGTSYSLTISRVEAEDAATYYCQQWSSNPWTFGGGTKLEIK	87900
